Target: STK3 (human) (UniProt Q13188)
Sequence (Q13188 whole entry, looked up): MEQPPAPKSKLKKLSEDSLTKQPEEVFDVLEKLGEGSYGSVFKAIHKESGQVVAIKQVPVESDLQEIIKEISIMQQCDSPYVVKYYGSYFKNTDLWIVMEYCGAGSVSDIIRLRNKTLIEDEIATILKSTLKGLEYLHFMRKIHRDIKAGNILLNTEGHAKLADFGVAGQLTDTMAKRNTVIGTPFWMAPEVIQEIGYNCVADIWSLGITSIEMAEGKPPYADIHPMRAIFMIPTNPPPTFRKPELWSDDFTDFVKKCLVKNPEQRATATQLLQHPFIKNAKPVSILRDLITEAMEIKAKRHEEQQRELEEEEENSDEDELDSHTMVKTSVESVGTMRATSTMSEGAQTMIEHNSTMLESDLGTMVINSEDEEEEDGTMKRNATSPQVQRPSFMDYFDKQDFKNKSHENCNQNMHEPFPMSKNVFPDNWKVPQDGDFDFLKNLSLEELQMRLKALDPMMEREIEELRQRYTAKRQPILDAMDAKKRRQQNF
Experiment: radiometric filter-binding kinase assay
Settings: compound 0.1 µM
VALUE_TYPE: residual activity (%)
Enter your answer as a number in %; do not include the unit.

QUERY: Give residual activity for the following molecule: Cc1ccc(Sc2cnc(Nc3cccc(Br)n3)s2)cc1C(=O)N1CCN(C(=O)CN)CC1
RESULT: 16

QUERY: Give residual activity for the following molecule: c1ccc2c(-c3cnn4cc(-c5ccc(N6CCNCC6)cc5)cnc34)ccnc2c1
RESULT: 102

QUERY: Give residual activity for the following molecule: NC(=O)Nc1ccc2c(c1)/C(=C/c1cc(-c3cccnc3)c[nH]1)C(=O)N2
RESULT: 8

QUERY: Give residual activity for the following molecule: C/C(=C1/C(=O)Nc2ccc(NC(N)=O)cc21)c1ccc[nH]1
RESULT: 10

QUERY: Give residual activity for the following molecule: CCc1cncnc1N1CCN(Cc2nc3cc(C(F)(F)F)ccc3[nH]2)CC1
RESULT: 95

QUERY: Give residual activity for the following molecule: NC1(c2ccc(-c3nc4ccn5c(=O)[nH]nc5c4cc3-c3ccccc3)cc2)CCC1
RESULT: 79

QUERY: Give residual activity for the following molecule: CC1=C(CO)C(=O)O[C@@H]([C@@H](C)[C@H]2CC[C@H]3[C@@H]4C[C@H]5O[C@]56[C@@H](O)C=CC(=O)[C@]6(C)C4CC[C@]23C)C1 (stereo not given in full)
RESULT: 123

QUERY: Give residual activity for the following molecule: NC(=O)c1cc2c(-c3cccc(-c4ccccc4)c3)cnc(N)c2s1
RESULT: 108

QUERY: Give residual activity for the following molecule: NC(=O)c1cc(-c2ccnc(NC3CCCCC3)c2)nc(N2CCNCC2)c1
RESULT: 103

QUERY: Give residual activity for the following molecule: CN1CCN(CCOc2cc(OC3CCOCC3)c3c(Nc4c(Cl)ccc5c4OCO5)ncnc3c2)CC1
RESULT: 102

QUERY: Give residual activity for the following molecule: O=C(Nc1nc2cc(C(F)(F)F)cc(NC3CC3)n2n1)c1cccnc1
RESULT: 116

QUERY: Give residual activity for the following molecule: O=C(Nc1ccccc1-c1cn2c(CN3CCNCC3)csc2n1)c1cnc2ccccc2n1
RESULT: 85

QUERY: Give residual activity for the following molecule: O=C(NCCCNc1nc(Nc2cccc(CN3CCOCC3)c2)ncc1C1CC1)C1CCC1
RESULT: 110

QUERY: Give residual activity for the following molecule: O=C(N[C@@H](COc1ccc2[nH]c(=O)[nH]c2c1)c1ccccc1)c1cccn(Cc2ccc(F)c(F)c2)c1=O
RESULT: 102

QUERY: Give residual activity for the following molecule: C=CC(=O)N1CCC[C@@H](n2nc(-c3ccc(Oc4ccccc4)cc3)c3c(N)ncnc32)C1
RESULT: 88

QUERY: Give residual activity for the following molecule: Cc1ccc(-c2ccc3c(ccc4sc5c(c43)NC[C@@H](C)NC5=O)n2)cn1
RESULT: 131

QUERY: Give residual activity for the following molecule: Cc1cccc(-c2nn(C(=S)Nc3ccccc3)cc2-c2ccnc3ccccc23)n1
RESULT: 107

QUERY: Give residual activity for the following molecule: COc1cc(O)c2c(c1)/C=C/C[C@H](O)[C@H](O)C(=O)/C=C\C[C@H](C)OC2=O
RESULT: 120

QUERY: Give residual activity for the following molecule: CNC(=O)C1[C@H]2O[C@@](C)([C@@H]1N)n1c3ccccc3c3c4c(c5c6ccccc6n2c5c31)C(=O)NC4 (stereo not given in full)
RESULT: 16

QUERY: Give residual activity for the following molecule: COc1ccc(N(C(=O)Nc2c(C)cccc2C)c2cc(Nc3ccc(N4CCN(C)CC4)cc3)ncn2)c(OC)c1
RESULT: 109

* * *

Biological target: BRSK1 (human) (UniProt Q8TDC3)
Sequence (Q8TDC3 whole entry, looked up): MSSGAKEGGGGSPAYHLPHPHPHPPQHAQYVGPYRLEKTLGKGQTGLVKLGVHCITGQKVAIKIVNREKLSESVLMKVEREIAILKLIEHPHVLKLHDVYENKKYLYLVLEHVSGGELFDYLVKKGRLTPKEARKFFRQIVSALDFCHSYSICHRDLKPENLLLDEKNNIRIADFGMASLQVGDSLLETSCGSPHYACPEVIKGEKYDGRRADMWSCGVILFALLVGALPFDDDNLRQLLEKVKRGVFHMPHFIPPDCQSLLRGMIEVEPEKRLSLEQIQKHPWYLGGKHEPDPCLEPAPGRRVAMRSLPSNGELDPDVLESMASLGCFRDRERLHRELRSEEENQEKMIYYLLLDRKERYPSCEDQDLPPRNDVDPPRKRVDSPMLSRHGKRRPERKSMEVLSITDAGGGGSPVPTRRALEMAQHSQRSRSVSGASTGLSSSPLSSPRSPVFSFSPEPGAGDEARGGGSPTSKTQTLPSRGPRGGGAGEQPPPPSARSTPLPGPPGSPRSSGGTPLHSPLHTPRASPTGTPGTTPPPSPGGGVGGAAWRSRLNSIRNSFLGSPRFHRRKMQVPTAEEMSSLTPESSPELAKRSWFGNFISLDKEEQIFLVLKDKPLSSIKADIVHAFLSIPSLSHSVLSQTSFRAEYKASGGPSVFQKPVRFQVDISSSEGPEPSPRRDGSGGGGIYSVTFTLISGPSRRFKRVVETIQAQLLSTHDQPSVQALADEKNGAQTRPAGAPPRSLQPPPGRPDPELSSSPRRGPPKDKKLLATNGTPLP
Assay: radiometric filter-binding kinase assay
Details: compound 1.0 µM
VALUE_TYPE: residual activity (%)
Enter your answer as a number in %; do not include the unit.

QUERY: Give residual activity for the following molecule: CCn1c(-c2nonc2N)nc2cncc(CNC3CCNCC3)c21
RESULT: 81

QUERY: Give residual activity for the following molecule: CN1C(=O)[C@@H](Cc2c[nH]c3ccccc23)NC1=S
RESULT: 101

QUERY: Give residual activity for the following molecule: NS(=O)(=O)OC[C@@H]1C[C@@H](n2ccc3c(N[C@H]4CCc5ccccc54)ncnc32)C[C@@H]1O
RESULT: 89

QUERY: Give residual activity for the following molecule: CNc1nc(-c2ccc3c(N)n[nH]c3c2)cc(N2C[C@@H](C(=O)NC3CCCCC3)CC[C@H]2C)n1
RESULT: 53

QUERY: Give residual activity for the following molecule: COc1ccc(N(C(=O)Nc2c(C)cccc2C)c2cc(Nc3ccc(N4CCN(C)CC4)cc3)ncn2)c(OC)c1
RESULT: 86

QUERY: Give residual activity for the following molecule: O=c1c(O)c(-c2ccc(O)c(O)c2)oc2cc(O)c(O)c(O)c12
RESULT: 82

QUERY: Give residual activity for the following molecule: NC(=O)c1cc2c(-c3cccc(-c4ccccc4)c3)cnc(N)c2s1
RESULT: 81

QUERY: Give residual activity for the following molecule: N#Cc1c(C2CCNCC2)cc(-c2c(O)cccc2OCC2CC2)nc1N
RESULT: 107

* * *

Target: MINK1 (human)
Test: radiometric filter-binding kinase assay
Details: compound 0.1 µM
Task for the reader: assign each of the following molecules its reported residual activity.
Enter your answer as a number in %; do not include the unit.

QUERY: Give residual activity for the following molecule: COc1cc(O)c2c(c1)[C@H]1OC1C[C@H](O)[C@H](O)C(=O)/C=C\C[C@H](C)OC2=O (stereo partly drawn)
RESULT: 111

QUERY: Give residual activity for the following molecule: COc1ccc(-n2ncc3cnc(Nc4cc(OC)c(OC)c(OCCCN5CCN(C)CC5)c4)nc32)cc1
RESULT: 104

QUERY: Give residual activity for the following molecule: COc1ccc(N(C(=O)Nc2c(C)cccc2C)c2cc(Nc3ccc(N4CCN(C)CC4)cc3)ncn2)c(OC)c1
RESULT: 76

QUERY: Give residual activity for the following molecule: O=C(O)c1ccc(-c2c[nH]c3ncc(-c4ccccc4)cc23)cc1C1CCCC1
RESULT: 68

QUERY: Give residual activity for the following molecule: COc1cc(O)c2c(c1)/C=C/C[C@H](O)[C@H](O)C(=O)/C=C\C[C@H](C)OC2=O
RESULT: 101

QUERY: Give residual activity for the following molecule: Cc1cc(NC(=O)c2cccc(NC(=O)/C=C/CN(C)C)c2)ccc1Nc1nccc(-c2cccnc2)n1
RESULT: 94

QUERY: Give residual activity for the following molecule: CC1=C(CO)C(=O)O[C@@H]([C@@H](C)[C@H]2CC[C@H]3[C@@H]4C[C@H]5O[C@]56[C@@H](O)C=CC(=O)[C@]6(C)C4CC[C@]23C)C1 (stereo partly drawn)
RESULT: 94

QUERY: Give residual activity for the following molecule: CN(C)C/C=C/C(=O)Nc1cccc(C(=O)Nc2ccc(Nc3nccc(-c4cccnc4)n3)cc2)c1
RESULT: 92

QUERY: Give residual activity for the following molecule: Cc1cccc(-c2nn(C(=S)Nc3ccccc3)cc2-c2ccnc3ccccc23)n1
RESULT: 66

QUERY: Give residual activity for the following molecule: NC1(c2ccc(-c3nc4ccn5c(=O)[nH]nc5c4cc3-c3ccccc3)cc2)CCC1
RESULT: 106

QUERY: Give residual activity for the following molecule: CCn1c(-c2nonc2N)nc2cncc(CNC3CCNCC3)c21
RESULT: 107

QUERY: Give residual activity for the following molecule: CNc1nc(-c2ccc3c(N)n[nH]c3c2)cc(N2C[C@@H](C(=O)NC3CCCCC3)CC[C@H]2C)n1
RESULT: 110

QUERY: Give residual activity for the following molecule: c1ccc2c(-c3cnn4cc(-c5ccc(N6CCNCC6)cc5)cnc34)ccnc2c1
RESULT: 74

QUERY: Give residual activity for the following molecule: CN1CCN(CCOc2cc(OC3CCOCC3)c3c(Nc4c(Cl)ccc5c4OCO5)ncnc3c2)CC1
RESULT: 90

QUERY: Give residual activity for the following molecule: Cc1ccc(Sc2cnc(Nc3cccc(Br)n3)s2)cc1C(=O)N1CCN(C(=O)CN)CC1
RESULT: 69

QUERY: Give residual activity for the following molecule: NC(=O)c1cc2c(-c3cccc(-c4ccccc4)c3)cnc(N)c2s1
RESULT: 58

QUERY: Give residual activity for the following molecule: O=C(N[C@@H](COc1ccc2[nH]c(=O)[nH]c2c1)c1ccccc1)c1cccn(Cc2ccc(F)c(F)c2)c1=O
RESULT: 92

QUERY: Give residual activity for the following molecule: NC(=O)c1cc(-c2ccnc(NC3CCCCC3)c2)nc(N2CCNCC2)c1
RESULT: 65

* * *

Target: GSK3B (human)
Assay: radiometric filter-binding kinase assay
Conditions: compound 1.0 µM
Classification field: 1 (yes) = residual activity at or over 70%; 0 (no) = residual activity under 70%.

QUERY: Could you verify whether the entry COc1cc(O)c2c(c1)/C=C/C[C@H](O)[C@H](O)C(=O)/C=C\C[C@H](C)OC2=O shows residual activity of no less than 70%?
RESULT: 1 (yes)

QUERY: Could you verify whether the entry COc1cc2ncn(-c3cc(OCc4ccccc4S(C)(=O)=O)c(C#N)s3)c2cc1OC shows residual activity of no less than 70%?
RESULT: 1 (yes)

QUERY: Could you verify whether the entry Cn1c(=O)c2c(ncn2C)n(C)c1=O shows residual activity of no less than 70%?
RESULT: 1 (yes)

QUERY: Could you verify whether the entry NC(=O)c1c(NC(=O)C2CC2)sc2c1CCCC2 shows residual activity of no less than 70%?
RESULT: 1 (yes)

QUERY: Could you verify whether the entry NC(=O)c1cc2c(-c3cccc(-c4ccccc4)c3)cnc(N)c2s1 shows residual activity of no less than 70%?
RESULT: 0 (no)

QUERY: Could you verify whether the entry C[C@H]1CCCC(=O)CCC/C=C/c2cc(O)cc(O)c2C(=O)O1 shows residual activity of no less than 70%?
RESULT: 0 (no)
